Data provenance: patent US11053226B2

Target: GDP-bound KRAS protein (aa 1-169), containing both G12C and C118A amino acid substitutions (Homo sapiens (Human), UniProt P01116, C118A/G12C)
Sequence (P01116 other isoform, or with tags, fused parts or gaps G12C/C118A): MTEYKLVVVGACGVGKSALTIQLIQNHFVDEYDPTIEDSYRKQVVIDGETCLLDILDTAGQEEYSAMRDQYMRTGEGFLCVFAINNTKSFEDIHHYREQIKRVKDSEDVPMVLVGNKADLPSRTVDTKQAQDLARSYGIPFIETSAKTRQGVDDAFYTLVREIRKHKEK
Assay: Coupled Nucleotide Exchange Assay
Format: biochemical
Details: read-out: Coupled Exchange IC50 (2 h); 2 h compound pre-incubation
Experimental: For compounds in Table 9, the following assay conditions were employed: Coupled Nucleotide Exchange Assay: The assay plates were then read on a PerkinElmer EnVision Multilabel Reader, using AlphaScreen® technology, and data were analyzed using a 4-parameter logistic model to calculate IC50 values.
quantityName: IC50

IC50 in this record for C=CC(=O)N1CC(NC(=O)Cn2cc(Br)c3cc(Cl)cc(C)c32)C1 [Example 91] : 3.18 µM

GET /value?item= C=CC(=O)N1CC(N(C)C(=O)Cn2c3ccccc3c3cc(Br)ccc32)C1 [Example 261] &field=IC50 returns 15.4 µM

Entry C=CC(=O)N1CC(NC(=O)C(C)(C)n2c(C)c(C(=O)N3CCc4c(cccc4OC)C3)c3cc(Cl)ccc32)C1 [Example 131] , IC50 reported as 5.54 µM

---

Would you kindly list IC50 for each of these compounds?
system: Phosphorylation of ERK1/2 in A549 cells; assay: Phospho-ERK1/2 MSD Assay (A549); assay type: cell-based; conditions: Homo sapiens, A549, 4 h, read-out: pERK IC50 (4 h, A549), 4 h compound treatment

# IC50 of C=CC(=O)N1CC(NC(=O)Cn2cc(C(=O)N3CCc4c(F)cccc4C3)c3cc(Br)ccc32)C1 = > 100 µM

IC50 reported for this compound C=CC(=O)N1CC(NC(=O)Cn2c(C)c(C(=O)N3CCc4c(O)cccc4C3)c3cc(Br)ccc32)C1 : > 33.3 µM

Measured IC50, C=CC(=O)N1CC(N(C)C(=O)Cn2c(C3CC3)c(C(=O)N3CCN(c4ccc(C#N)cn4)CC3)c3cc(Cl)cc(C)c32)C1 : > 100 µM

---

tested on: Phosphorylation of ERK1/2 in A549 cells; assay: Phospho-ERK1/2 MSD Assay (A549); type: cell-based; details: Homo sapiens, read-out: pERK IC50 (4 h), 4 h compound treatment
quantityName: IC50

Field IC50 (entry C=CC(=O)N1CC(NC(=O)Cn2cc(-c3ccccc3-c3ccccc3)c3cc(Br)cc(C)c32)C1 ) reads > 33.3 µM

The reported IC50 of the molecule C=CC(=O)N1CC(NC(=O)Cn2c3ccc(Br)cc3c3ccc(Oc4cccnc4)nc32)C1 was > 100 µM

Value of IC50 reported for the molecule C=CC(=O)N1CC(NC(=O)Cn2cc(I)c3cc(Br)ccc32)C1 is > 100 µM

Reported IC50 for C=CC(=O)N1CC(NC(=O)Cn2cc(-c3ccc(F)cc3F)c3cc(Br)ccc32)C1 was 16.5 µM

Lookup result for C=CC(=O)N1CC(NC(=O)Cn2cc(-c3cccnc3OC(C)C)c3cc(Br)ccc32)C1 ; measured IC50: 11.3 µM

Form field IC50, entry C=CC(=O)N1CC(NC(=O)Cn2c3ccc(Br)cc3c3ccc(Oc4ccccn4)nc32)C1 : > 100 µM

Given item C=CC(=O)N1CC(NC(=O)Cn2cc(Cl)c3cc(Br)ccc32)C1 , the value recorded as its IC50 is > 100 µM

Please fill in: IC50 reported for C=CC(=O)N1CC(NC(=O)Cn2cc(-c3cccc4ccccc34)c3cc(Br)cc(C)c32)C1 = 42.1 µM

Measured IC50 of C=CC(=O)N1CC(NC(=O)Cn2c(C)c(-c3ccccc3N3CCCC3)c3cc(Cl)ccc32)C1 : > 100 µM

Consider C=CC(=O)N1CC(NC(=O)Cn2c3ccccc3c3c(Br)cccc32)C1 . Its measured IC50 is > 100 µM

Per the records, this molecule ( C=CC(=O)N1CC(NC(=O)Cn2c(C)c(-c3cccnc3OC(C)C)c3cc(Br)ccc32)C1 ) has IC50 equal to > 100 µM

Looking up C=CC(=O)N1CC(NC(=O)C(C)(C)n2c(C)c(C(=O)N3CCc4c(cccc4OC)C3)c3cc(Cl)ccc32)C1 , I see its IC50 listed as 50.6 µM

Lab note: measured IC50 of C=CC(=O)N1CC(NC(=O)Cn2c(C)c(-c3ccccc3CC)c3cc(Cl)ccc32)C1 was > 33.3 µM

The recorded IC50 for entry C=CC(=O)N1CC(NC(=O)Cn2c(C(=O)OC)c(I)c3cc(Br)ccc32)C1 equals > 100 µM

For reference, reported IC50 for C=CC(=O)N1CC(NC(=O)Cn2c(C)c(-c3ccccc3Cc3ccccc3)c3cc(Cl)ccc32)C1 stands at > 100 µM

Quick note, IC50 for C=CC(=O)N1CC(NC(=O)Cn2c(C)c(-c3ccccc3C3CC3)c3cc(Cl)ccc32)C1 landed at > 33.3 µM

The molecule listed as C=CC(=O)N1CC(NC(=O)Cn2c3ccccc3c3cc(Br)ccc32)C1 shows IC50 equal to > 100 µM

Input C=CC(=O)N1CC(N(C)C(=O)Cn2cc(I)c3cc(I)ccc32)C1 . Output IC50: > 33.3 µM

Please fill in: IC50 reported for C=CC(=O)N1CC(NC(=O)Cn2cc(-c3c(C)ccc4[nH]ncc34)c3cc(Cl)ccc32)C1 = > 100 µM

Measured IC50 of C=CC(=O)N1CC(NC(=O)Cn2c(C)c(-c3ccccc3OC)c3cc(Cl)ccc32)C1 : > 100 µM

Noted for C=CC(=O)N1CC(NC(=O)Cn2c3c(c4cc(Br)ccc42)CCCC3)C1 : its IC50 reads > 100 µM

---

target: GDP-bound KRAS protein (aa 1-169), containing both G12C and C118A amino acid substitutions (Homo sapiens (Human), UniProt P01116, C118A/G12C); test: Coupled Nucleotide Exchange Assay; type: biochemical; details: read-out: Coupled Exchange IC50 (20 h); 20 h compound pre-incubation
quantityName: log10 IC50 (log10 of the value in nM)
Please note: log10 values; quantity IC50; unit nM.

compound C=CC(=O)N1CC(NC(=O)Cn2c3c(c4cc(Br)ccc42)CCCC3)C1 , log10 IC50 observed: 3.03

The reported value for C=CC(=O)N1CC(NC(=O)Cn2cc(I)c3cc([N+](=O)[O-])ccc32)C1 in terms of log10 IC50 is 3.07

Looking up C=CC(=O)N1CC(NC(=O)Cn2c3c(c4cc(Br)ccc42)CNCC3)C1 , I see its log10 IC50 listed as 4.34

Item: C=CC(=O)N1CC(NC(=O)Cn2c3c(c4cc(Br)ccc42)CN(C(C)=O)CC3)C1 | log10 IC50: 3.90

So, C=CC(=O)N1CC(NC(=O)Cn2cc(C(=O)N(C)CC(=O)Nc3ccc(Cl)c(C(F)(F)F)c3)c3cc(Br)ccc32)C1 ? Its log10 IC50 was 2.20

---

target: GDP-bound KRAS protein (aa 1-169), containing both G12C and C118A amino acid substitutions (Homo sapiens (Human), UniProt P01116, C118A/G12C); assay: Coupled Nucleotide Exchange Assay; type: biochemical; conditions: second Coupled Exchange column; read-out: Coupled Exchange IC50
quantityName: IC50 (µM)
Report only the number, with the unit µM understood.

// sample C=CC(=O)N1CC(NC(=O)Cn2c(C)c(C(=O)OC(C)(C)C)c3cc([N+](=O)[O-])ccc32)C1 , its IC50 was 105

Entry C=CC(=O)N1CC(NC(=O)Cn2c(C)c(CN3CCN(c4ccc(C#N)cn4)CC3)c3cc(Br)ccc32)C1 ; IC50 = 6.22

// IC50 lookup, molecule = C=CC(=O)N1CC(NC(=O)Cn2c(C)c(-c3cnccc3C#N)c3cc(Cl)ccc32)C1 , result: 11.7

---

Consider the following compounds; for each one, report its IC50.
molecular target: GDP-bound KRAS protein (aa 1-169), containing both G12C and C118A amino acid substitutions (Homo sapiens (Human), UniProt P01116, C118A/G12C); assay: Coupled Nucleotide Exchange Assay; format: biochemical; conditions: read-out: Coupled Exchange IC50 (20 h); 20 h compound pre-incubation
Express it in nM; write the number only.

Field IC50 (entry C=CC(=O)N1CC(NC(=O)Cn2cc(-c3ccccc3OC)c3cc(Br)ccc32)C1 ) reads 920

Per the records, this compound ( C=CC(=O)N1CC(NC(=O)Cn2c(C)c(C(=O)N3CCc4c(cccc4OC)C3)c3cc([N+](=O)[O-])ccc32)C1 ) has IC50 equal to 300

Record C=CC(=O)N1CC(NC(=O)Cn2cc(C(=O)NCCC(=O)Nc3ccccc3CC)c3cc(Br)cc(C)c32)C1 , field IC50: 170

Item: C=CC(=O)N1CC(NC(=O)Cn2cc(Br)c3cc(Cl)cc(C)c32)C1 | IC50: 370

// recorded IC50 for C=CC(=O)N1CC(NC(=O)Cn2cc(C(=O)NCCC(=O)Nc3cccc4ccccc34)c3cc(Br)ccc32)C1 : 650

IC50 measured on C=CC(=O)N1CC(NC(=O)Cn2c3ccc(Br)cc3c3ccc(Oc4ccc(F)cc4)nc32)C1 = 320

Value of measured IC50 for the entry C=CC(=O)N1CC(N(C)C(=O)Cn2c(C)c(C(=O)N3CCc4c(cccc4OC)C3)c3cc(Cl)ccc32)C1 : 130

response.value for C=CC(=O)N1CC(NC(=O)Cn2ccc3cc(Cl)c(Cl)cc32)C1 (field: IC50) = 5220

// C=CC(=O)N1CC(NC(=O)Cn2ccc3cc(Br)cc(F)c32)C1 : IC50 value = 2250

Value of measured IC50 for the entry C=CC(=O)N1CC(NC(=O)Cn2c3ccc(Br)cc3c3c(Cl)ccnc32)C1 : 430

// sample C=CC(=O)N1CC(NC(=O)Cn2c(C)c(C(=O)N3CCc4c(C)cc(Br)cc4C3)c3cc(Br)ccc32)C1 , its IC50 was 180

IC50 reading for C=CC(=O)N1CC(NC(=O)Cn2cc(I)c3ccc(Br)cc32)C1 : 1700

Just so you know, measured IC50 for C=CC(=O)N1CC(N(C)C(=O)Cn2c(C)c(C(=O)N3CCN(c4ccc([N+](=O)[O-])cn4)CC3)c3cc(Br)ccc32)C1 came out at 220

For this compound ( C=CC(=O)N1CC(NC(=O)Cn2cc(-c3ccccc3OC)c3cc(-c4ccccc4OC)ccc32)C1 ), measured IC50 is 3010

Lookup result for C=CC(=O)N1CC(NC(=O)Cn2cc(I)c3cc(Br)cc(C)c32)C1 ; measured IC50: 260

// C=CC(=O)N1CC(NC(=O)Cn2c3c(c4cc([N+](=O)[O-])ccc42)CCCC3)C1 : IC50 value = 850

So, C=CC(=O)N1CC(NC(=O)Cn2cc(-c3ccc(F)cc3F)c3cc(-c4ccc(F)cc4F)ccc32)C1 ? Its IC50 was 10900

For reference, reported IC50 for C=CC(=O)N1CC(NC(=O)Cn2cc(Cc3ccccc3)c3ccccc32)C1 stands at 5090

// recorded IC50 for C=CC(=O)N1CC(NC(=O)Cn2cc(I)c3cc(C(F)(F)F)ccc32)C1 : 970

So for C=CC(=O)N1CC(NC(=O)Cn2cc(-c3cc[nH]n3)c3ccc(-c4ccccc4Cl)cc32)C1 , the logged IC50 turned out to be 5400

The value of IC50 measured for the compound C=CC(=O)N1CC(NC(=O)Cn2c(C(=O)NCc3ccccc3)c(I)c3cc(Br)ccc32)C1 turned out to be 61700

Value of IC50 reported for the compound C=CC(=O)N1CC(N(C)C(=O)Cn2c(C)c(C(=O)N3CCN(c4ccc(C)cn4)CC3)c3cc(Cl)cc(C)c32)C1 is 180
